Experiment: Displacement of PNPG from almond beta-glucosidase by UV spectroscopy
Set-up: species or system Prunus dulcis
quantity-kind: pKi
# log scale: pKi equals minus log10 of the concentration in mol/L

Q) I am curious: what pKi value has been reported for `OC[C@H]1NC[C@H](O)[C@@H](O)[C@@H]1O` ?
A) 3.78

Q) How about `C#CCOc1ccc(C(=O)CCC(=O)NCCCN2C[C@H](O)[C@@H](O)[C@H](O)[C@H]2CO)cc1` ?
A) 5.19

Q) Next up: `C#CCOc1ccc(C(=O)c2ccc(O[C@@H]3O[C@H](CO)[C@@H](O)[C@H](O)[C@H]3O)cc2)cc1`
A) 3.23

Q) Same for `C#CCOc1ccc(C(=O)c2ccc(C(=O)NCCCN3C[C@H](O)[C@@H](O)[C@H](O)[C@H]3CO)cc2)cc1`
A) 5.89

---

Target protein (sequence): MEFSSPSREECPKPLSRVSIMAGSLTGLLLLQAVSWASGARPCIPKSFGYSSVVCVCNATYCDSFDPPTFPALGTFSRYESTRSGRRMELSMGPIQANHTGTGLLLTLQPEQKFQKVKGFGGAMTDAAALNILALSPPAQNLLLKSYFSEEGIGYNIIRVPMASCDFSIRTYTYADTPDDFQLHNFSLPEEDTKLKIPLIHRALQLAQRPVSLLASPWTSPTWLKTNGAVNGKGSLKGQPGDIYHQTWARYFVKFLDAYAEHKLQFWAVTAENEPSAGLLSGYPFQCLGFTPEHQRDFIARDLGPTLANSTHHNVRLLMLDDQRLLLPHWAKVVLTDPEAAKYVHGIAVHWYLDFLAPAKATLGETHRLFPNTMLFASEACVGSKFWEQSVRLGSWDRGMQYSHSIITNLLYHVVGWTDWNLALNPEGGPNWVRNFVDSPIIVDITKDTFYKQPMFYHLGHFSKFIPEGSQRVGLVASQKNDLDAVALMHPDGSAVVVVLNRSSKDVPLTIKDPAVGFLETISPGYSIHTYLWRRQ
Provide the recorded IC50 for the entries that follow.

Q) Need IC50 of `C#CCOc1ccc(C(=O)CCC(=O)NCCCN2C[C@H](O)[C@@H](O)[C@H](O)[C@H]2CO)cc1` , thanks.
A) 1650 nM

Q) Likewise for `C#CCOc1ccc(C(=O)c2ccc(C(=O)NCCCN3C[C@H](O)[C@@H](O)[C@H](O)[C@H]3CO)cc2)cc1` ?
A) 350 nM

All figures here come from ChEMBL document CHEMBL1157674.
